method-summary: chemical genetic growth profiling, strain panel (AID 1159580);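 note: tested at 20 µM; growth read once vehicle control cultures reached saturation at 30 °C; 1 = growth at the plate median or of vehicle wells; lower values mean less growth of the strain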
conditions: S. cerevisiae deletion strains, growth OD, locus YMR129W, stronger effect = lower value
About 2,000 (36%) of roughly 5,500 compounds were called active. About 18% were inconclusive and are not listed. Some of the results follow.
quantity-kind: normalized growth
Answer field: number only, no words.

{"molecule": "Cc1ncc(CNC(=O)N(CCCl)N=O)c(N)n1", "normalized growth": 1.02}
{"molecule": "CCCc1cc(C(N)=S)ccn1", "normalized growth": 0.961}
{"molecule": "O=C(c1ccc(OCCN2CCCCC2)cc1)c1c(-c2ccc(O)cc2)sc2cc(O)ccc12", "normalized growth": 1.02}
{"molecule": "CN(C)CCN(Cc1cccs1)c1ccccn1", "normalized growth": 1.01}
{"molecule": "Cc1[nH]c2ccccc2c1CN(C)C", "normalized growth": 1.02}
{"molecule": "COC(=O)/C=C/C(C)=C/C=C/C(C)=C/C=C/C=C(C)/C=C/C=C(C)/C=C/C(=O)O", "normalized growth": 1.02}

Okay, now this molecule:
Item: CN(C)CCN(Cc1ccccc1)c1ccccn1 | normalized growth: 1

Hello, the source for this data is PubChem BioAssay AID1159580, in case you need it.
